# assayed-target: MCH-2
# experimental-protocol: Determination of dissociation constant Ki and irreversible rate constant k3 for irreversible inhibitors (Mch2)
# Format: biochemical
# conditions-used: continuous assay for sixty minutes, reaction initiated by adding the enzyme
*: point of attachment. Cbz = O=C(OCc1ccccc1)*; CH2F = FC*
measurement-type: pKi
Reminder that pKi means the negative base-10 logarithm of the concentration expressed in mol/L.

Prompt: Quick one: pKi of Cbz-Val-Ala-Asp-CH2F [Reference] ?
Completion: 6.23

----------
# assayed-target: MCH-5
# experimental-protocol: Determination of dissociation constant Ki and irreversible rate constant k3 for irreversible inhibitors (Mch5)
# Assay type: biochemical
# conditions-used: continuous assay for sixty minutes, reaction initiated by adding the enzyme
# Excerpt: For the irreversible inhibition of a ICE/ced-3 Family Protease enzyme with a competitive irreversible inhibitor; using the model represented by the following formulas: [drawing 15] [drawing 16] The product formation at time t may be expressed as: [formula] where E, I, EI and E-I denote the active enzyme, inhibitor, non-covalent enzyme-inhibitor complex and covalent enzyme-inhibitor adduct, respectively. […]
*: point of attachment. Cbz = O=C(OCc1ccccc1)*; CH2F = FC*
measurement-type: Ki (nM)
Give just the numeric value; nM need not be written.

Prompt: Quick one: Ki of Cbz-Val-Ala-Asp-CH2F [Reference] ?
Completion: 18

----------
# assayed-target: MCH-3
# experimental-protocol: Fluorescence enzyme assay, determination of IC50 values (Mch3)
# conditions-used: 30 minutes preincubation at room temperature; substrate Acetyl-Asp-Glu-Val-Asp-amino-4-methylcoumarin
Residues, ends and D or L forms follow the SMILES beside them. *: point of attachment. Cbz = O=C(OCc1ccccc1)*
measurement-type: IC50

Prompt: Give recorded IC50 with MCH-3 for the following compound: CC(C)[C@H](NC(=O)OCc1ccccc1)C(=O)N[C@@H](C)C(=O)N[C@H](C=O)CC(=O)O [Ref., Cbz-ValAlaAsp-H] (Cbz-Val-Ala-Asp-aldehyde)
Completion: > 10 µM

----------
# assayed-target: mICE
# experimental-protocol: Determination of dissociation constant Ki and irreversible rate constant k3 for irreversible inhibitors (ICE)
# Format: biochemical
# conditions-used: continuous assay for sixty minutes, reaction initiated by adding the enzyme
*: point of attachment. Cbz = O=C(OCc1ccccc1)*; CH2F = FC*
measurement-type: Ki (nM)
Give just the numeric value; nM need not be written.

Prompt: Quick one: Ki of Cbz-Val-Ala-Asp-CH2F [Reference] ?
Completion: 15
